System: AD-293 cells
procedure_details: Cytotoxicity (MTT) in AD-293 cells
Assay type: cell-based
experimental_parameters: treated for 24 h
# Lookup of reported CC50 keyed by entry

[
  {
    "compound": "C=C1CCC2C(C)(CO)C(O)CCC2(C)C1CC=C1C(=O)OCC1Oc1cccc2cccnc12 (stereo not drawn) [6a17, (14α)-(Quinolyl-8′-oxy)andrographolide]",
    "CC50": "> 10 µM"
  }
]

API: the following record is the query input.
Report CC50, nothing else, for this compound: C=C1CCC2C3(C)COC(C)(C)OC3CCC2(C)C1CC=C1C(=O)OCC1Oc1cccc2cccnc12 (centres unmarked)
> 10 µM

----------
Tested on: E. faecalis
procedure_details: Bacteriostatic screening (growth, OD630) against E. faecalis
Format: cell-based
experimental_parameters: 24 h, IC50 generated when inhibition at 250 μM was higher than 80%
Experimental: The strategy in this study was to submit these synthesized compounds to a preliminary screening test against E. coli, S. aureus and E. faecalis (ciprofloxacin was used as a reference compound; see Table 1). […] The tested compound or ciprofloxacin (positive drug) was dissolved in DMSO and diluted with LB liquid medium into a stock solution containing 20% DMSO before use; the stock solution of the carrier was 20% DMSO in LB liquid medium. […]
observation_type: IC50 (µM)
Answer in µM, number only, no unit symbol.

[
  {
    "molecule": "C=C1CCC2C(C)(CO)C(O)CCC2(C)C1CC=C1C(=O)OCC1Oc1ccccc1[N+](=O)[O-] (stereo not drawn) [6b6, (14β)-(2′-Nitro)phenoxy-andrographolide]",
    "assay_result": 15.9
  },
  {
    "molecule": "C=C1CCC2C(C)(CO)C(O)CCC2(C)C1CC=C1C(=O)OCC1Oc1ccccc1C(=O)OCC (stereo not drawn) [6a8]",
    "assay_result": 83.3
  },
  {
    "molecule": "C=C1CCC2C(C)(CO)C(O)CCC2(C)C1CC=C1C(=O)OCC1Oc1cccnc1[N+](=O)[O-] (stereo not drawn) [6b15]",
    "assay_result": 29.3
  },
  {
    "molecule": "C=C1CCC2C3(C)COC(C)(C)OC3CCC2(C)C1CC=C1C(=O)OCC1Oc1cccnc1[N+](=O)[O-] (stereo not drawn) [5b15]",
    "assay_result": 38.4
  },
  {
    "molecule": "C=C1CCC2C(C)(CO)C(O)CCC2(C)C1CC=C1C(=O)OCC1Oc1ccnc2ccccc12 (stereo not drawn) [6a16, (14α)-(Quinolyl-4′-oxy)andrographolide]",
    "assay_result": 65.8
  },
  {
    "molecule": "C=C1CCC2C(C)(CO)C(O)CCC2(C)C1CC=C1C(=O)OCC1Oc1cccc(OC)c1 (stereo not drawn)",
    "assay_result": 138
  },
  {
    "molecule": "C=C1CCC2C3(C)COC(C)(C)OC3CCC2(C)C1CC=C1C(=O)OCC1Oc1ccc([N+](=O)[O-])cc1C(=O)OC (stereo not drawn)",
    "assay_result": 51.2
  },
  {
    "molecule": "C=C1CCC2C(C)(CO)C(O)CCC2(C)C1CC=C1C(=O)OCC1Oc1cccnc1[N+](=O)[O-] (stereo not drawn) [6a15]",
    "assay_result": 56.7
  },
  {
    "molecule": "C=C1CCC2C(C)(CO)C(O)CCC2(C)C1CC=C1C(=O)OCC1Oc1ccc(C(=O)OCC)cc1 (stereo not drawn) [6b9]",
    "assay_result": 53.3
  },
  {
    "molecule": "C=C1CCC2C(C)(CO)C(O)CCC2(C)C1CC=C1C(=O)OCC1Oc1ccnc2ccccc12 (stereo not drawn) [6b16, (14β)-(Quinolyl-4′-oxy)andrographolide]",
    "assay_result": 58.5
  }
]

Report IC50, nothing else, for this molecule: C=C1CCC2C(C)(CO)C(O)CCC2(C)C1CC=C1C(=O)OCC1Oc1cccc2cccnc12 (stereo not drawn) [6a17, (14α)-(Quinolyl-8′-oxy)andrographolide]
16.3

Report IC50, nothing else, for this molecule: C=C1CCC2C3(C)COC(C)(C)OC3CCC2(C)C1CC=C1C(=O)OCC1Oc1cccc2cccnc12 (stereo not drawn)
19.3

Report IC50, nothing else, for this molecule: C=C1CCC2C(C)(CO)C(O)CCC2(C)C1CC=C1C(=O)OCC1Oc1ccccc1OC (stereo not drawn) [6b12]
20.8

Report IC50, nothing else, for this molecule: C=C1CCC2C(C)(CO)C(O)CCC2(C)C1CC=C1C(=O)OCC1Oc1ccc([N+](=O)[O-])cc1F (stereo not drawn) [6b2]
24.4

Report IC50, nothing else, for this molecule: C=C1CCC2C(C)(CO)C(O)CCC2(C)C1CC=C1C(=O)OCC1Oc1ccc([N+](=O)[O-])c(F)c1 (stereo not drawn)
19.6

----------
System: E. coli
procedure_details: Bacteriostatic screening (growth, OD630) against E. coli
Assay type: cell-based
experimental_parameters: Escherichia coli, 24 h, IC50 generated when inhibition at 250 μM was higher than 80%
observation_type: IC50 (µM)
Answer in µM, number only, no unit symbol.

# example entries with known answers
[
  {
    "compound": "C=C1CC[C@@H]2[C@](C)(CO)[C@H](O)CC[C@@]2(C)[C@@H]1C/C=C1/C(=O)OC[C@@H]1Oc1cccc2cccnc12 [6b17, (14β)-(Quinolyl-8′-oxy)andrographolide]",
    "IC50 (µM)": 21.6
  },
  {
    "compound": "O=C(O)c1cn(C2CC2)c2cc(N3CCNCC3)c(F)cc2c1=O [Ciprofloxacin, reference compound]",
    "IC50 (µM)": 0.31
  }
]

API: the following record is the query input.
Report IC50, nothing else, for this compound: C=C1CC[C@H]2[C@@](C)(CCC(=O)[C@@]2(C)CO)[C@@H]1C/C=C1/C(=O)OC[C@@H]1Oc1cccc2cccnc12
27.9

----------
Test system: S. aureus
procedure_details: Bacteriostatic screening (growth, OD630) against S. aureus
Assay type: cell-based
experimental_parameters: at 250 μM of the tested compound, 250 µM
observation_type: inhibition rate (%) SA

[
  {
    "compound": "C=C1CCC2C(C)(CO)C(O)CCC2(C)C1CC=C1C(=O)OCC1Oc1ccc([N+](=O)[O-])c(OC)c1 (centres unmarked) [6a5]",
    "assay_result": "(10) %"
  },
  {
    "compound": "C=C1CCC2C3(C)COC(C)(C)OC3CCC2(C)C1CC=C1C(=O)OCC1Oc1ccc([N+](=O)[O-])c(OC)c1 (centres unmarked) [5a5]",
    "assay_result": "(10) %"
  },
  {
    "compound": "C=C1CCC2C(C)(CO)C(O)CCC2(C)C1CC=C1C(=O)OCC1Oc1ccccc1OC (centres unmarked) [6b12]",
    "assay_result": "(13) %"
  },
  {
    "compound": "C=C1CCC2C(C)(CO)C(O)CCC2(C)C1CC=C1C(=O)OCC1Oc1cccnc1[N+](=O)[O-] (centres unmarked) [6a15]",
    "assay_result": "(13) %"
  }
]

----------
# Lookup of reported IC50 keyed by entry
Tested on: E. faecalis
procedure_details: Bacteriostatic screening (growth, OD630) against E. faecalis
Format: cell-based
experimental_parameters: 24 h, IC50 generated when inhibition at 250 μM was higher than 80%
Answer in µM, number only, no unit symbol.

[
  {
    "compound": "C=C1CCC2C(C)(CO)C(O)CCC2(C)C1CC=C1C(=O)OCC1Oc1cccc([N+](=O)[O-])c1 (stereo not drawn) [6b7, (14β)-(3′-Nitro)phenoxy-andrographolide]",
    "IC50, µM": 17.8
  },
  {
    "compound": "C=C1CCC2C(C)(CO)C(O)CCC2(C)C1CC=C1C(=O)OCC1Oc1ccc([N+](=O)[O-])c(OC)c1 (stereo not shown) [6a5]",
    "IC50, µM": 50.4
  },
  {
    "compound": "C=C1CCC2C(C)(CO)C(O)CCC2(C)C1CC=C1C(=O)OCC1Oc1ccc([N+](=O)[O-])cc1OC (stereo not shown) [6b3]",
    "IC50, µM": 140
  }
]

Report IC50, nothing else, for this compound: C=C1CCC2C(C)(CO)C(O)CCC2(C)C1CC=C1C(=O)OCC1Oc1ccc([N+](=O)[O-])c(OC)c1 (stereo not shown) [6b5]
21.8

----------
Test system: IL-6/STAT3 signaling pathway
procedure_details: IL-6/STAT3 luciferase reporter assay in AD-293 cells
Format: cell-based
experimental_parameters: Homo sapiens, AD293; AD-293 reporter cells; 2.5 μg mL−1 IL-6; treated for 16 h
# Lookup of reported EC50 keyed by entry
Answer in µM, number only, no unit symbol.

[
  {
    "compound": "C=C1CC[C@@H]2[C@](C)(CO)[C@H](O)CC[C@@]2(C)[C@@H]1C/C=C1/C(=O)OC[C@@H]1Oc1cccc2cccnc12 [6b17, (14β)-(Quinolyl-8′-oxy)andrographolide]",
    "EC50 (µM)": 2.41
  }
]

API: the following record is the query input.
Report EC50, nothing else, for this compound: C=C1CC[C@H]2[C@@](C)(CCC(=O)[C@@]2(C)CO)[C@@H]1C/C=C1/C(=O)OC[C@@H]1Oc1cccc2cccnc12
6.13
